Numbers sourced from patent US8080529B2.

System: TNF-α
Experiment: Inhibition of TNF-α production by stimulated human peripheral blood leukocytes in vitro
Format: cell-based
Conditions: Homo sapiens, Leukocyte, 50 μM; PMA-stimulated PBL; read-out: Percentage of inhibition of TNF-α production
Method: Test substances used in in vitro experiments were dissolved in dimethyl sulfoxide (DMSO) (Kemika, Croatia) at concentrations of 50 mM and 10 mM, and were further diluted to final concentrations of 50 μM and 10 μM in 1 mL Dulbecco's modified Eagle medium (DMEM) supplemented with 1% heat inactivated fetal bovine serum (FBS), 1% L-glutamine, 50 U/ml penicillin, 50 μg/ml streptomycin and 2.5 μg/mL Fungizone (amphotericin B). […]
Catalogue of compounds with associated inhibition at 50 µM

COMPOUND: C=CC(=O)OC1[C@H](C)O[C@@H](O[C@H]2[C@H](C)[C@@H](O[C@@H]3O[C@H](C)C[C@H](NC)[C@H]3O)[C@](C)(OC)C[C@@H](C)C(=O)N[C@H](C)[C@@H](O)[C@](C)(O)[C@@H](CC)OC(=O)[C@@H]2C)C[C@@]1(C)OC (stereo partly shown)
UNIT STRING: %
inhibition at 50 µM: 100
--
COMPOUND: CC[C@H]1OC(=O)[C@H](C)[C@@H](O[C@H]2C[C@@](C)(OC)[C@@H](OCCCN)[C@H](C)O2)[C@H](C)[C@@H](O[C@@H]2O[C@H](C)C[C@H](N(C)C)[C@H]2O)[C@](C)(O)C[C@@H](C)CN(C)[C@H](C)[C@H]2OC(=O)O[C@@]21C [Example 51C]
UNIT STRING: %
inhibition at 50 µM: 4
--
COMPOUND: CC[C@H]1OC(=O)[C@H](C)[C@@H](O[C@H]2C[C@@](C)(OC)[C@@H](OC(=O)CCN(C)CCN(CC)CC)[C@H](C)O2)[C@H](C)[C@@H](O[C@@H]2O[C@H](C)C[C@H](N(C)C)[C@H]2O)[C@](C)(OC)C[C@@H](C)C(=O)N[C@H](C)[C@@H](O)[C@]1(C)O
UNIT STRING: %
inhibition at 50 µM: 75
--
COMPOUND: CC[C@H]1OC(=O)[C@H](C)[C@@H](O[C@H]2C[C@@](C)(OC)[C@@H](O)[C@H](C)O2)[C@H](C)[C@@H](O[C@@H]2O[C@H](C)C[C@H](N(C)C)[C@H]2O)[C@](C)(O)C[C@@H](C)CN(C)[C@H](C)[C@@H](O)[C@]1(C)O [azithromycin, reference compound]
UNIT STRING: %
inhibition at 50 µM: 0
